Can you tell me NanoBRET Fold Response for the items I'm about to list?
target: ACKR3 (Homo sapiens); construct: purchased Promega (in-house HiBiT-GPCR construct library, NanoBRET); experiment: NanoBRET screen HiBiT-ACKR3 in HEK293; assay type: binding; conditions: ACKR3; tracer 0.1μM
Sequence (P25106 whole entry): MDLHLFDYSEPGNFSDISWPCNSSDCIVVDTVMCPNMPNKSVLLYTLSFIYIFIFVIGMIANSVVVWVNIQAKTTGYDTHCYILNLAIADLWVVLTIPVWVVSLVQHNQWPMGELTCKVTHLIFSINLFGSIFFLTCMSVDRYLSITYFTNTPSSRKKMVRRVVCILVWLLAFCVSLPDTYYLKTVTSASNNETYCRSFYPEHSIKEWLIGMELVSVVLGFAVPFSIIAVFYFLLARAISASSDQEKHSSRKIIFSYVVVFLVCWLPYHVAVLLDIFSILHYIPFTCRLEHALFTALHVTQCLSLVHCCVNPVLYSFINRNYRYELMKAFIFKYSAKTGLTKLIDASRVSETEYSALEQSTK
Lab note: record just the number, no unit beside it.

Q: Reported NanoBRET Fold Response for `O=C(CCc1ccc2n1[B-](F)(F)[N+]1=C(c3ccc[nH]3)C=CC1=C2)NCCOCCOCCNC(=O)OCCOCCN1CCN(C2=Nc3ccccc3Sc3ccccc32)CC1` : what is it?
Ans: 0.96

Q: Reported NanoBRET Fold Response for `O=C(CCOCCOCCOCCOCCNC(=O)CCc1ccc2n1[B-](F)(F)[N+]1=C(c3ccc[nH]3)C=CC1=C2)NCCCN1CCN(C2=Nc3ccccc3Oc3ccc(Cl)cc32)CC1` : what is it?
Ans: 0.30

Q: Reported NanoBRET Fold Response for `COc1ccccc1N1CCN(CCCCN2C(=O)c3ccc(CNC(=O)CCOCCNC(=O)c4ccc(CNC(=O)CCc5ccc6n5[B-](F)(F)[N+]5=C(c7ccc[nH]7)C=CC5=C6)cc4)cc3C2=O)CC1` : what is it?
Ans: 0.77

Q: Reported NanoBRET Fold Response for `CC(C)N(CC[C@H](c1ccccc1)c1cc(CCNC(=O)CCOCCOCCOCCOCCNC(=O)CCc2ccc3n2[B-](F)(F)[N+]2=C(c4ccc[nH]4)C=CC2=C3)ccc1O)C(C)C` : what is it?
Ans: 0.96

Q: Reported NanoBRET Fold Response for `CCCn1c(=O)c2[nH]c(-c3ccc(OCC(=O)NCCNC(=O)CCOCCNC(=O)c4ccc(CNC(=O)CCc5ccc6n5[B-](F)(F)[N+]5=C(c7ccc[nH]7)C=CC5=C6)cc4)cc3)nc2n(CCC)c1=O` : what is it?
Ans: 1.02

* * *

Target: GABBR2 (Homo sapiens, UniProt O75899)
Construct: purchased Promega (in-house HiBiT-GPCR construct library, NanoBRET)
Sequence (O75899 42-941): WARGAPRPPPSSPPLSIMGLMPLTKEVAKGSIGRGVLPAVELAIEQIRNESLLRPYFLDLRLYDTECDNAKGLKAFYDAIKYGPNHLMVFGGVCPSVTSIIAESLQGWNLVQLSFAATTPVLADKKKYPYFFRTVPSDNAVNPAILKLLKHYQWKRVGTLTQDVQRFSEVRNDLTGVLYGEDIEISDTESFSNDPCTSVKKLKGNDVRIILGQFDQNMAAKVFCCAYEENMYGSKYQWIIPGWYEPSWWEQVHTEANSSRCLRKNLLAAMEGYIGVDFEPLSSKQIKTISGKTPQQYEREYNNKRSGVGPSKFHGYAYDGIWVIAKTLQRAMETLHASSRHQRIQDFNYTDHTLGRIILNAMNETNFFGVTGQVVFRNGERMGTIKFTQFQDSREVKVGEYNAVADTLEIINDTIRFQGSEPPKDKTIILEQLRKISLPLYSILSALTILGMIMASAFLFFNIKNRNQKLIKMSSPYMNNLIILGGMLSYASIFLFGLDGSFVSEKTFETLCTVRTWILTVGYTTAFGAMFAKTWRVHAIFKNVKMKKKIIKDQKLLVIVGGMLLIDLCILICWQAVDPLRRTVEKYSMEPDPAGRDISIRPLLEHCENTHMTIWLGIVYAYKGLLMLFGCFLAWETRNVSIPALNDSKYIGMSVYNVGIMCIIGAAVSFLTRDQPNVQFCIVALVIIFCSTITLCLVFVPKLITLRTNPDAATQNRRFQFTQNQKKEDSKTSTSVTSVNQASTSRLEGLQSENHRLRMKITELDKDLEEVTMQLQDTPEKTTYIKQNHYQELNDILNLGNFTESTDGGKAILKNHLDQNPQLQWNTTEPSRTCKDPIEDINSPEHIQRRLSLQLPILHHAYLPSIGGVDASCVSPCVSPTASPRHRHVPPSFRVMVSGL
Experiment: NanoBRET screen HiBiT-GABBR2 in HEK293
Format: binding
Details: GABBR2; tracer 1μM
Can you tell me NanoBRET Fold Response for the items I'm about to list?
Lab note: record just the number, no unit beside it.

Q: Reported NanoBRET Fold Response for COc1ccccc1N1CCN(CCCCN2C(=O)c3ccc(CNC(=O)CCOCCOCCOCCOCCNC(=O)CCc4ccc5n4[B-](F)(F)[N+]4=C(c6ccc[nH]6)C=CC4=C5)cc3C2=O)CC1 [NAN-190-2-NB590] : what is it?
Ans: 1.04

Q: Reported NanoBRET Fold Response for CC(C)N(CC[C@H](c1ccccc1)c1cc(CCNC(=O)c2ccc(CNC(=O)CCc3ccc4n3[B-](F)(F)[N+]3=C(c5ccc[nH]5)C=CC3=C4)cc2)ccc1O)C(C)C [Tolterodine-BZ-NB590] : what is it?
Ans: 0.71

Q: Reported NanoBRET Fold Response for Cc1nc2n(c(=O)c1CCN1CCC(c3noc4cc(F)ccc34)CC1)CCCC2OC(=O)NCCOCCOCCOCCOCCNC(=O)CCc1ccc2n1[B-](F)(F)[N+]1=C(c3ccc[nH]3)C=CC1=C2 (stereo not drawn) [Risperidone-2-NB590] : what is it?
Ans: 1.17

* * *

Molecular target: MTNR1A (Homo sapiens, UniProt P48039)
Construct: purchased Promega (in-house HiBiT-GPCR construct library, NanoBRET)
Sequence (P48039 whole entry): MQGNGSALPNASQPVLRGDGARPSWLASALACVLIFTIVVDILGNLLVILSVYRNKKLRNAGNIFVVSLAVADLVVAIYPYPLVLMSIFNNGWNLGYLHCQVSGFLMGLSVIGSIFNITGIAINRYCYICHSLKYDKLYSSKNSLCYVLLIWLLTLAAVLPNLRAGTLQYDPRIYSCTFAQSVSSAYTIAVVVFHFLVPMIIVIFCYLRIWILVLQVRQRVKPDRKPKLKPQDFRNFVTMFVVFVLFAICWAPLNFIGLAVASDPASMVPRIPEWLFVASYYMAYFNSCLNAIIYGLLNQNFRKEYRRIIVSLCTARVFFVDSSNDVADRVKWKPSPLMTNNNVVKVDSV
Assay: NanoBRET screen HiBiT-MTNR1A in HEK293
Type: binding
Details: MTNR1A; tracer 1μM
Method: Each tracer candidate was screened across the entire library of HiBiT-GPCR constructs using NanoBRET as the detection modality. As depicted in Figure 4A, the specificity of interactions was evaluated through decrease in BRET due to competitive displacement of a bound tracer by excess parental compound. Each tracer was analyzed for binding to each HiBiT-GPCR fusion in the absence and in the presence of competing parental compound. […]
Can you tell me NanoBRET Fold Response for the items I'm about to list?
Lab note: record just the number, no unit beside it.

Q: Notebook entry, MTNR1A (Homo sapiens, UniProt P48039) assay: NanoBRET Fold Response of O=C(CCOCCOCCOCCOCCNC(=O)CCc1ccc2n1[B-](F)(F)[N+]1=C(c3ccc[nH]3)C=CC1=C2)NCCCN1CCN(C2=Nc3ccccc3Oc3ccc(Cl)cc32)CC1 [Loxapine-a-2-NB590] = ?
Ans: 1.12

Q: Notebook entry, MTNR1A (Homo sapiens, UniProt P48039) assay: NanoBRET Fold Response of CC(C)N(CC[C@H](c1ccccc1)c1cc(CCNC(=O)c2ccc(CNC(=O)CCc3ccc4n3[B-](F)(F)[N+]3=C(c5ccc[nH]5)C=CC3=C4)cc2)ccc1O)C(C)C [Tolterodine-BZ-NB590] = ?
Ans: 1.03

Q: Notebook entry, MTNR1A (Homo sapiens, UniProt P48039) assay: NanoBRET Fold Response of COc1ccccc1N1CCN(CCCCN2C(=O)c3ccc(CNC(=O)CCOCCNC(=O)c4ccc(CNC(=O)CCc5ccc6n5[B-](F)(F)[N+]5=C(c7ccc[nH]7)C=CC5=C6)cc4)cc3C2=O)CC1 [NAN-190-3-NB590] = ?
Ans: 0.80

* * *

target: ADRA1D (Homo sapiens, UniProt P25100); construct: purchased Promega (in-house HiBiT-GPCR construct library, NanoBRET); assay: NanoBRET screen HiBiT-ADRA1D in HEK293; type: binding; conditions: ADRA1D; tracer 1μM
Sequence (P25100 whole entry): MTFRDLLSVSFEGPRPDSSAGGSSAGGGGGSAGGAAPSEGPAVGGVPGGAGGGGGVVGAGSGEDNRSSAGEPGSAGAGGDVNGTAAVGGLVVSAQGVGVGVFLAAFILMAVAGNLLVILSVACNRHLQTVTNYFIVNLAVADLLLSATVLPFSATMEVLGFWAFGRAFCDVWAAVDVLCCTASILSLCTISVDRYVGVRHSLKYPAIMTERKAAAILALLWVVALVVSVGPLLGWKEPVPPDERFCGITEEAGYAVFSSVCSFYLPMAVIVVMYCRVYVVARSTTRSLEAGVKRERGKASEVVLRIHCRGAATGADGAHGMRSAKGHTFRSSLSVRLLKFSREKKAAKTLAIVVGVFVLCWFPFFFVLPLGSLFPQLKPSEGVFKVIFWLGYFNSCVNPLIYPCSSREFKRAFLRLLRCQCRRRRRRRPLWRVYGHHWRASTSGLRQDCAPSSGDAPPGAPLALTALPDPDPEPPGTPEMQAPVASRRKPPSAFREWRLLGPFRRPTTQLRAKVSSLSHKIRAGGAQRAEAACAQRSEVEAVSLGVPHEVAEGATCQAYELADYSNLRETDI
value_kind: NanoBRET Fold Response
Lab note: record just the number, no unit beside it.

Q: Notebook entry, ADRA1D (Homo sapiens, UniProt P25100) assay: NanoBRET Fold Response of Cc1nc2n(c(=O)c1CCN1CCC(c3noc4cc(F)ccc34)CC1)CCCC2OC(=O)NCCOCCOCCOCCOCCNC(=O)CCc1ccc2n1[B-](F)(F)[N+]1=C(c3ccc[nH]3)C=CC1=C2 (stereo not drawn) = ?
Ans: 1.16

Q: Notebook entry, ADRA1D (Homo sapiens, UniProt P25100) assay: NanoBRET Fold Response of O=C(CCc1ccc2n1[B-](F)(F)[N+]1=C(c3ccc[nH]3)C=CC1=C2)NCc1ccc(C(=O)NCCOCCC(=O)N[C@@H]2CC[C@@]3(O)[C@H]4Cc5ccc(O)c6c5[C@@]3(CCN4CC3CC3)[C@H]2O6)cc1 [Naltrexone-3-NB590] = ?
Ans: 1.31

Q: Notebook entry, ADRA1D (Homo sapiens, UniProt P25100) assay: NanoBRET Fold Response of `CC(C)N(CC[C@H](c1ccccc1)c1cc(CCNC(=O)c2ccc(CNC(=O)CCc3ccc4n3[B-](F)(F)[N+]3=C(c5ccc[nH]5)C=CC3=C4)cc2)ccc1O)C(C)C` = ?
Ans: 1.05

* * *

Biological target: GALR1 (Homo sapiens)
Construct: purchased Promega (in-house HiBiT-GPCR construct library, NanoBRET)
Sequence (P47211 1-349): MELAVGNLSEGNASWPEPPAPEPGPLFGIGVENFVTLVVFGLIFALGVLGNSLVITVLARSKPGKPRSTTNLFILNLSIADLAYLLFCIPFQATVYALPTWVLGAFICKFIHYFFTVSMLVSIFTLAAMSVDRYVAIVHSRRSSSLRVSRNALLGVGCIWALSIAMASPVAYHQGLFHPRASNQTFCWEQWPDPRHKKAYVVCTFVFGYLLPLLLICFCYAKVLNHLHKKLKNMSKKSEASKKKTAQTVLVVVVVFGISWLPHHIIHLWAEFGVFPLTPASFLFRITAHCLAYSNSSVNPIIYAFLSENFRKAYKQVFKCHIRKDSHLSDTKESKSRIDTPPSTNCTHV
Test: NanoBRET screen HiBiT-GALR1 in HEK293
Format: binding
Settings: GALR1; tracer 1μM
value_kind: NanoBRET Fold Response
Lab note: record just the number, no unit beside it.

Q: Notebook entry, GALR1 (Homo sapiens) assay: NanoBRET Fold Response of `CC(C)N(CC[C@H](c1ccccc1)c1cc(CCNC(=O)c2ccc(CNC(=O)CCc3ccc4n3[B-](F)(F)[N+]3=C(c5ccc[nH]5)C=CC3=C4)cc2)ccc1O)C(C)C` = ?
Ans: 1.07

Q: Notebook entry, GALR1 (Homo sapiens) assay: NanoBRET Fold Response of `CCCn1c(=O)c2[nH]c(-c3ccc(OCC(=O)NCCNC(=O)CCOCCNC(=O)c4ccc(CNC(=O)CCc5ccc6n5[B-](F)(F)[N+]5=C(c7ccc[nH]7)C=CC5=C6)cc4)cc3)nc2n(CCC)c1=O` = ?
Ans: 1.04

Q: Notebook entry, GALR1 (Homo sapiens) assay: NanoBRET Fold Response of Cc1nc2n(c(=O)c1CCN1CCC(c3noc4cc(F)ccc34)CC1)CCCC2OC(=O)NCCOCCOCCOCCOCCNC(=O)CCc1ccc2n1[B-](F)(F)[N+]1=C(c3ccc[nH]3)C=CC1=C2 (stereo not drawn) = ?
Ans: 0.99
